- Test system: Staphylococcus epidermidis
- Assay procedure: Antibacterial activity against methicillin resistant Staphylococcus epidermidis clinical isolate assessed as susceptibility level by broth microdilution method
- Assay type: functional
Quantity: Activity (%)
Enter your answer as a number in %; do not include the unit.

Tell me its Activity given CC(=O)N[C@@H]1[C@H](Oc2c3cc4cc2Oc2ccc(cc2Cl)[C@@H](O[C@@H]2O[C@@H](CO)[C@@H](O)[C@H](O)[C@@H]2NC(C)=O)[C@@H]2NC(=O)[C@H](NC(=O)[C@@H]4NC(=O)[C@H]4NC(=O)[C@@H](Cc5ccc(c(Cl)c5)O3)NC(=O)[C@H](N)c3ccc(O)c(c3)Oc3cc(O)cc4c3)c3ccc(O)c(c3)-c3c(O[C@H]4O[C@H](CO)[C@@H](O)[C@@H](O)[C@@H]4O)cc(O)cc3[C@@H](C(=O)O)NC2=O)O[C@@H](CO)[C@@H](O)[C@@H]1O as the entry.
81
